viability, T/C: recorded values
- System: 695427-040-R-J1-PDC complex spheroid viability
- assayText: Anticancer human tumor 695427-040-R-J1-PDC patient-derived colon adenocarcinoma cell line growth inhibition [POLQ]
- measurementContext: second compound 0.316 µM; first compound 0.0316 µM; stronger effect = lower value

{"compound": "COc1cc2cc(C(=O)CCC(=O)O)sc2cc1OC + COC1C(OC(N)=O)C(O)C(Oc2ccc3c(O)c(NC(=O)c4ccc(O)c(CC=C(C)C)c4)c(=O)oc3c2C)OC1(C)C", "viability, T/C / %": 108}
{"compound": "CC1COCCN1c1cc(C2(O)CC3CCC(C2)O3)c2cnn(-c3ccn[nH]3)c2n1 (stereo unspecified) + Nc1ccc(C#CCN(C(=O)Cc2ncc(C(F)(F)F)cc2C(F)(F)F)c2ccc(F)cc2)nn1", "viability, T/C / %": 99.4}
{"compound": "CNCc1ccc(-c2[nH]c3cc(F)cc4c3c2CCNC4=O)cc1 + Nc1ccc(C#CCN(C(=O)Cc2ncc(C(F)(F)F)cc2C(F)(F)F)c2ccc(F)cc2)nn1", "viability, T/C / %": 119}
{"compound": "O=c1[nH]cc(F)c(=O)[nH]1 + Nc1ccc(C#CCN(C(=O)Cc2ncc(C(F)(F)F)cc2C(F)(F)F)c2ccc(F)cc2)nn1", "viability, T/C / %": 110}
{"compound": "O=c1[nH]cc(F)c(=O)[nH]1 + COC1C(OC(N)=O)C(O)C(Oc2ccc3c(O)c(NC(=O)c4ccc(O)c(CC=C(C)C)c4)c(=O)oc3c2C)OC1(C)C", "viability, T/C / %": 114}
{"compound": "CC1COCCN1c1cc(C2(S(C)(=N)=O)CC2)nc(-c2ccnc3[nH]ccc23)n1 (stereo unspecified) + COC1C(OC(N)=O)C(O)C(Oc2ccc3c(O)c(NC(=O)c4ccc(O)c(CC=C(C)C)c4)c(=O)oc3c2C)OC1(C)C", "viability, T/C / %": 104}

---

- Tested on: 695427-040-R-J1-PDC complex spheroid viability
- assayText: Anticancer human tumor 695427-040-R-J1-PDC cell line growth inhibition [POLQ];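 further: spheroids exposed to compounds for seven days; 100% = DMSO vehicle control viability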
- measurementContext: second compound 3.16 µM; first compound 10 µM; stronger effect = lower value
measuredMetric: viability, T/C (%)

{"compound": "COc1cccc2c1C(=O)c1c(O)c3c(c(O)c1C2=O)CC(O)(C(=O)CO)CC3OC1CC(N)C(O)C(C)O1 (stereo unspecified) + COC1C(OC(N)=O)C(O)C(Oc2ccc3c(O)c(NC(=O)c4ccc(O)c(CC=C(C)C)c4)c(=O)oc3c2C)OC1(C)C", "valueMeasured": 54.5}
{"compound": "COc1ccc([C@@H](O)c2cc(-c3ncnc4cc(N5CCOCC5)ccc34)c(F)cc2Cl)nn1 + Cc1cccc(N(C)C(=O)C2C(O)CCN2c2nc(C)cc(C(F)(F)F)c2C#N)c1", "valueMeasured": 48.1}
{"compound": "O=C(Nc1ccc(O)c(NS(=O)(=O)c2ccc(F)cc2)c1)c1ccc(-c2ccccc2)cc1 + COC1C(OC(N)=O)C(O)C(Oc2ccc3c(O)c(NC(=O)c4ccc(O)c(CC=C(C)C)c4)c(=O)oc3c2C)OC1(C)C", "valueMeasured": 89.7}
{"compound": "Nc1ccn(C2OC(CO)C(O)C2(F)F)c(=O)n1 (stereo unspecified) + Cc1cccc(N(C)C(=O)C2C(O)CCN2c2nc(C)cc(C(F)(F)F)c2C#N)c1", "valueMeasured": 57.6}
{"compound": "C#Cc1c(F)ccc2cc(O)cc(-c3ncc4c(N5CC6CCC(C5)N6)nc(OCC56CCCN5CC(F)C6)nc4c3F)c12 (stereo unspecified) + Nc1ccc(C#CCN(C(=O)Cc2ncc(C(F)(F)F)cc2C(F)(F)F)c2ccc(F)cc2)nn1", "valueMeasured": 84.6}
{"compound": "CCc1cc2c(N3CCc4c(cc(Cn5ccnc5)cc4-c4cn(C)nc4C(F)(F)F)C3=O)cc(C)nc2c(OC)n1 + Nc1ccc(C#CCN(C(=O)Cc2ncc(C(F)(F)F)cc2C(F)(F)F)c2ccc(F)cc2)nn1", "valueMeasured": 108}
{"compound": "O=c1[nH]cc(F)c(=O)[nH]1 + Nc1ccc(C#CCN(C(=O)Cc2ncc(C(F)(F)F)cc2C(F)(F)F)c2ccc(F)cc2)nn1", "valueMeasured": 108}
{"compound": "CNCc1ccc(-c2[nH]c3cc(F)cc4c3c2CCNC4=O)cc1 + Cc1cccc(N(C)C(=O)C2C(O)CCN2c2nc(C)cc(C(F)(F)F)c2C#N)c1", "valueMeasured": 104}
{"compound": "CC(C)n1c(=O)n(C)c2cnc3cc(F)c(-c4ccc(OCCCN5CCCCC5)nc4)cc3c21 + Nc1ccc(C#CCN(C(=O)Cc2ncc(C(F)(F)F)cc2C(F)(F)F)c2ccc(F)cc2)nn1", "valueMeasured": 79.6}
{"compound": "CCc1cc2c(N3CCc4c(cc(Cn5ccnc5)cc4-c4cn(C)nc4C(F)(F)F)C3=O)cc(C)nc2c(OC)n1 + COC1C(OC(N)=O)C(O)C(Oc2ccc3c(O)c(NC(=O)c4ccc(O)c(CC=C(C)C)c4)c(=O)oc3c2C)OC1(C)C", "valueMeasured": 97.3}
{"compound": "CC1COCCN1c1cc(-c2ccnn2C)c2ccnc(-c3ccn[nH]3)c2n1 (stereo unspecified) + Nc1ccc(C#CCN(C(=O)Cc2ncc(C(F)(F)F)cc2C(F)(F)F)c2ccc(F)cc2)nn1", "valueMeasured": 52.2}
{"compound": "COc1cc(C2c3cc4c(cc3C(OC3OC5COC(C)OC5C(O)C3O)C3COC(=O)C23)OCO4)cc(OC)c1O (stereo unspecified) + Cc1cccc(N(C)C(=O)C2C(O)CCN2c2nc(C)cc(C(F)(F)F)c2C#N)c1", "valueMeasured": 80.8}
{"compound": "CC1COCCN1c1cc(-c2ccnn2C)c2ccnc(-c3ccn[nH]3)c2n1 (stereo unspecified) + Cc1cccc(N(C)C(=O)C2C(O)CCN2c2nc(C)cc(C(F)(F)F)c2C#N)c1", "valueMeasured": 48}
{"compound": "O=C(c1cc(Cc2n[nH]c(=O)c3ccccc23)ccc1F)N1CCN(C(=O)C2CC2)CC1 + Cc1cccc(N(C)C(=O)C2C(O)CCN2c2nc(C)cc(C(F)(F)F)c2C#N)c1", "valueMeasured": 103}
{"compound": "COc1cccc2c1C(=O)c1c(O)c3c(c(O)c1C2=O)CC(O)(C(=O)CO)CC3OC1CC(N)C(O)C(C)O1 (stereo unspecified) + Cc1cccc(N(C)C(=O)C2C(O)CCN2c2nc(C)cc(C(F)(F)F)c2C#N)c1", "valueMeasured": 46.8}
{"compound": "CC1COCCN1c1cc(C2(O)CC3CCC(C2)O3)c2cnn(-c3ccn[nH]3)c2n1 (stereo unspecified) + COC1C(OC(N)=O)C(O)C(Oc2ccc3c(O)c(NC(=O)c4ccc(O)c(CC=C(C)C)c4)c(=O)oc3c2C)OC1(C)C", "valueMeasured": 45.3}
{"compound": "CC1COCCN1c1cc(C2(S(C)(=N)=O)CC2)nc(-c2ccnc3[nH]ccc23)n1 (stereo unspecified) + Nc1ccc(C#CCN(C(=O)Cc2ncc(C(F)(F)F)cc2C(F)(F)F)c2ccc(F)cc2)nn1", "valueMeasured": 88.2}
{"compound": "C=CC(=O)N1CCN(c2nc(=O)n(-c3c(C)ccnc3C(C)C)c3nc(-c4c(O)cccc4F)c(F)cc23)C(C)C1 (stereo unspecified) + Cc1cccc(N(C)C(=O)C2C(O)CCN2c2nc(C)cc(C(F)(F)F)c2C#N)c1", "valueMeasured": 107}
{"compound": "O=C(c1cc(Cc2n[nH]c(=O)c3ccccc23)ccc1F)N1CCN(C(=O)C2CC2)CC1 + COC1C(OC(N)=O)C(O)C(Oc2ccc3c(O)c(NC(=O)c4ccc(O)c(CC=C(C)C)c4)c(=O)oc3c2C)OC1(C)C", "valueMeasured": 112}
{"compound": "COc1cc(C2c3cc4c(cc3C(OC3OC5COC(C)OC5C(O)C3O)C3COC(=O)C23)OCO4)cc(OC)c1O (stereo unspecified) + Nc1ccc(C#CCN(C(=O)Cc2ncc(C(F)(F)F)cc2C(F)(F)F)c2ccc(F)cc2)nn1", "valueMeasured": 81.5}
{"compound": "O=C(Nc1ccc(O)c(NS(=O)(=O)c2ccc(F)cc2)c1)c1ccc(-c2ccccc2)cc1 + Cc1cccc(N(C)C(=O)C2C(O)CCN2c2nc(C)cc(C(F)(F)F)c2C#N)c1", "valueMeasured": 93.6}
